Assay: Quantitative High-Throughput drug screen in 47 multiple myeloma cell lines against the NCATS MIPE library collection: LP1_DSMZ cell viability assay (AID 1918982); also: nearly all actives have a fitted effect of over 35% in size
Details: LP1 myeloma viability, CellTiter-Glo ATP luminescence, 48 h; series mostly up to 45.8 µM
Records with an inconclusive call do not appear. Calls of active or inactive are those of the source. Calls follow the shape of the dose curve; as a rule, active = well fitted cell-killing curve with a large enough effect; inconclusive = small, poorly fitted or top-dose-only effect, or effect the other way; inactive = no such curve, though single readings can be large or run the other way.
The categories you may choose from are Yes (active), No (inactive)

Recorded results for 5 molecules are shown here.
INSERT INTO measurements (molecule, answer_label) VALUES
  ('CNC(=O)c1ccc2cc(C3(O)CCn4cncc43)ccc2c1 (stereo unspecified)', 'No'),
  ('CC1(C)CCC2=C(O1)c1ccccc1C(=O)C2=O', 'Yes'),
  ('O=C1NC(=O)C(=Cc2cccc(C(F)(F)F)c2)S1', 'No'),
  ('CC(C)=CC[C@@H](O)C1=CC(=O)c2c(O)ccc(O)c2C1=O', 'Yes'),
  ('NS(=O)(=O)c1cccc2c1C(=O)c1cccc(O)c1C2=O', 'Yes');

API: the following record is the query input.
Query: // outcome(item) with item = NC(=O)c1cccc2[nH]c(-c3ccc([C@H]4CCCN4)cc3F)nc12
Reply: No

----------
Test system: NIH3T3
Experiment: Cytotoxic Profiling of Annotated Libraries Using Quantitative High-Throughput Screening (AID 1296008); also: % is scaled to controls: 0 for no effect and ±100 for the full control effect; nearly all actives have a fitted effect of over 60% in size
Details: Five cell lines viability, CellTiter-Glo ATP luminescence, 48-72 h; hits give low values
Records with an inconclusive call do not appear.
Listing of recorded max response by entry.
Output spec: scalar in %, unitless text.

INSERT INTO results (molecule, target_entity, experimental_result) VALUES
  ('O=C1C[C@@H](c2ccc(O)cc2)Oc2cc(O)cc(O)c21', 'NIH3T3', 1.63),
  ('NCCS', 'NIH3T3', 4.3),
  ('O=C(O)c1cc(O)c2c(c1)C(=O)c1cccc(O)c1C2=O', 'NIH3T3', 0.522),
  ('Nc1ncnc2ccccc12', 'NIH3T3', -0.365),
  ('O=c1ccn([C@@H]2O[C@H](CO)[C@H](O)[C@H]2O)c(=O)[nH]1', 'NIH3T3', -5.13),
  ('O=C(O)CCc1nc(-c2ccccc2)c(-c2ccccc2)o1', 'NIH3T3', 3.82),
  ('CC1(C)S[C@H]2[C@H](NC(=O)[C@@H](N)c3ccc(O)cc3)C(=O)N2[C@@H]1C(=O)O', 'NIH3T3', 4.61),
  ('c1cc(-c2sc(-c3ccncc3)c(-c3ccncc3)c2-c2ccncc2)ccn1', 'NIH3T3', 4.17);

Query: What value of max response has been reported for the following molecule? O=C(N[C@@H](c1ccccc1)[C@@H]1CCCCN1)c1cccc(C(F)(F)F)c1Cl
Reply: -0.909

Query: Request: COc1ccc(Cc2ccc(NC(N)=O)cc2)cc1-c1cccc(Cl)c1
Reply: -1.6

Query: Same again, this time with CN(C)CCC(c1ccccc1)c1ccccn1 (stereo not drawn)
Reply: -1.68

Query: Then N[C@@]1(C(=O)O)CS(=O)(=O)[C@H]2[C@H](C(=O)O)[C@H]21 ?
Reply: -12.5

Query: Do the same for COc1ccc2cccc(CCNC(C)=O)c2c1 please
Reply: -3.32

Query: Queued: O=C(O)C(O)Cc1ccc(O)c(O)c1 (stereo not drawn)
Reply: -0.893

Query: Same thing, different molecule: NC1=N[C@@]2(c3cc(NC(=O)c4ccc(F)cn4)ccc3F)COC[C@@H]2CS1
Reply: 4.73

Query: Also check CCN(CC)CCOC(=O)c1ccc(N)cc1
Reply: -2.46
